Biological target: chimeric 0401-IE class II molecule on cells of transgenic mice (human/murine chimera)
Experiment: cell-based or functional assay
parameter_measured: Maximum inhibition(%) of IL-2 secretion
Answers are plain numbers, in %.

Some binders with known Maximum inhibition(%) of IL-2 secretion results, for comparison:
binder	result_number
MS-GPC-8 Fab (Fab, V domains shown, Fab from pMx9_Fab: VH-CH1 with FLAG tag and STREP tag II, VL-CL; VH residue 1 is Q in Fab; also called B8-Fab; B8) VH: QVQLKESGPALVKPTQTLTLTCTFSGFSLSTSGVGVGWIRQPPGKALEWLALIDWDDDKYYSTSLKTRLTISKDTSKNQVVLTMTNMDPVDTATYYCARSPRYRGAFDYWGQGTLVTVSS VL: DIVLTQPPSVSGAPGQRVTISCSGSSSNIGSNYVSWYQQLPGTAPKLLIYDNNQRPSGVPDRFSGSKSGTSASLAITGLQSEDEADYYCQSYDMPQAVFGGGTKLTVLG	100
MS-GPC-8-27-41 Fab (Fab, V domains shown, Fab: VH-CH1 with FLAG tag and STREP tag II, VL-CL; VH residue 1 is Q in Fab; also called 1D09C3) VH: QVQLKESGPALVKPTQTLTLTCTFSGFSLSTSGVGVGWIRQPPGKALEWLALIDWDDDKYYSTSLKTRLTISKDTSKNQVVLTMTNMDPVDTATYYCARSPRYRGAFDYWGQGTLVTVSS VL: DIVLTQPPSVSGAPGQRVTISCSGSESNIGNNYVQWYQQLPGTAPKLLIYDNNQRPSGVPDRFSGSKSGTSASLAITGLQSEDEADYYCQSYDMNVHVFGGGTKLTVLG	100

Consider the record given below.
Which Maximum inhibition(%) of IL-2 secretion reading was recorded for the binder MS-GPC-8-6-2 Fab (Fab, V domains shown, Fab: VH-CH1 with FLAG tag and STREP tag II, VL-CL; VH residue 1 is Q in Fab) VH: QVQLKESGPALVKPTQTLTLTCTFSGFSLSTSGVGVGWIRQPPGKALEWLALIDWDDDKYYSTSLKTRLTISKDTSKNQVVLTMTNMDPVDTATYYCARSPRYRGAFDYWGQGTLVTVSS VL: DIVLTQPPSVSGAPGQRVTISCSGSESNIGSNYVHWYQQLPGTAPKLLIYDNNQRPSGVPDRFSGSKSGTSASLAITGLQSEDEADYYCQSYDYDHYVFGGGTKLTVLG ?
100
